- methodNotes: logP determination by HPLC on reversed phase column (C 18), EEC Directive 79/831 Annex V.A8
- Format: physicochemical
- details: reversed phase C18 HPLC column; pH=2.3
endpoint: chromatographic logP
Write no unit; give the number alone.

Record excerpt, results attached:
[
  {
    "compound": "COC(=O)c1ccc(C(F)(F)F)cc1CN1CCS/C1=N\\C#N [Example (IIa-2)]",
    "chromatographic logP": 2.53
  },
  {
    "compound": "N#C/N=C1\\SCCN1Cc1cc(C(F)(F)F)ccc1C(=O)O [Example (II-2)]",
    "chromatographic logP": 2.01
  }
]

Query compound follows.
Lookup: Return the recorded chromatographic logP value; entry: N#C/N=C1\SCCN1Cc1cc(C(F)(F)F)ccc1C(=O)C1C(=O)CCCC1=O [Example 2]
Found: 2.54
